MEASURED_TARGET: UniProtKB Q6B856
ASSAY_NAME: Effect on microtubule stabilization isolated from bovine brain
MEASURED_METRIC: Relative stability (%)

| COMPOUND | MEASURED_TARGET | MEASURED_METRIC | VALUE_UNITS | TEST_VALUE |
| --- | --- | --- | --- | --- |
| COC(=O)N[C@@H](c1ccsc1)[C@@H](O)C(=O)OC1CC2C(C)(C)C1(C)[C@@]13CC(C)c4ccccc4[C@@]21O3 (some centres not stated) | UniProtKB Q6B856 | Relative stability | % | 316 |
| C=C1C[C@@]23O[C@]2(c2ccccc21)C1CC(OC(=O)[C@H](O)[C@@H](NC(=O)OCC)c2ccoc2)C3(C)C1(C)C (some centres not stated) | UniProtKB Q6B856 | Relative stability | % | 119 |
| CCCCOC(=O)N[C@@H](c1ccncc1)[C@@H](O)C(=O)OC1CC2C(C)(C)C1(C)[C@@]13CC(C)c4ccccc4[C@@]21O3 (some centres not stated) | UniProtKB Q6B856 | Relative stability | % | -3 |
| CCOC(=O)N[C@@H](c1ccsc1)[C@@H](O)C(=O)OC1CC2C(C)(C)C1(C)[C@@]13C[C@H](C)c4ccccc4[C@@]21O3 (some centres not stated) | UniProtKB Q6B856 | Relative stability | % | 788 |
| CCOC(=O)N[C@@H](c1ccncc1)[C@@H](O)C(=O)OC1CC2C(C)(C)C1(C)[C@@]13C[C@@H](C)c4ccccc4[C@@]21O3 (some centres not stated) | UniProtKB Q6B856 | Relative stability | % | 227 |
| CCOC(=O)N[C@@H](c1ccc(F)cc1)[C@@H](O)C(=O)OC1CC2C(C)(C)C1(C)[C@@]13C[C@H](C)c4ccccc4[C@@]21O3 (some centres not stated) | UniProtKB Q6B856 | Relative stability | % | 139 |
| CCOC(=O)N[C@@H](c1ccc(O)cc1)[C@@H](O)C(=O)OC1CC2C(C)(C)C1(C)[C@@]13C[C@H](C)c4ccccc4[C@@]21O3 (some centres not stated) | UniProtKB Q6B856 | Relative stability | % | 306 |

* * *

MEASURED_TARGET: UniProtKB Q6B856
ASSAY_NAME: Effect on microtubule stabilization isolated from bovine brain
Exam item: assign fulfilled to entries whose Relative stability is below 200% and not fulfilled to entries at or above 200%. Note that a value of exactly 200% receives not fulfilled.

| COMPOUND | QUALITATIVE_LABEL |
| --- | --- |
| CC(C)NC(=O)N[C@@H](c1ccccc1)[C@@H](O)C(=O)OC1CC2C(C)(C)C1(C)[C@@]13C[C@H](C)c4ccccc4[C@@]21O3 (stereo not given in full) | fulfilled |
| C=C1C[C@@]23O[C@]2(c2ccccc21)C1CC(OC(=O)[C@H](O)[C@@H](NC(C)=O)c2ccccc2)C3(C)C1(C)C (stereo not given in full) | fulfilled |
| C=C1C[C@@]23O[C@]2(c2ccccc21)C1CC(OC(=O)[C@H](O)[C@@H](NC(=O)CC)c2ccccc2)C3(C)C1(C)C (stereo not given in full) | fulfilled |
| CCOC(=O)N[C@@H](c1ccccc1)[C@@H](O)C(=O)OC1CC2C(C)(C)C1(C)[C@@]13C[C@](O)(CO)c4ccccc4[C@@]21O3 (stereo not given in full) | fulfilled |
| CCCC(=O)N[C@@H](c1ccncc1)[C@@H](O)C(=O)OC1CC2C(C)(C)C1(C)[C@@]13CC(C)c4ccccc4[C@@]21O3 (stereo not given in full) | not fulfilled |
| C=C1C[C@@]23O[C@]2(c2ccccc21)C1CC(OC(=O)[C@H](O)[C@@H](NC(=O)OCC)c2cccc(F)c2)C3(C)C1(C)C (stereo not given in full) | fulfilled |
| C[C@H]1C[C@@]23O[C@]2(c2ccccc21)C1CC(OC(=O)[C@H](O)[C@@H](NC(=O)NC(C)(C)C)c2ccccc2)C3(C)C1(C)C (stereo not given in full) | fulfilled |
| C=C1C[C@@]23O[C@]2(c2ccccc21)C1CC(OC(=O)[C@H](O)[C@@H](NC(=O)OCC)c2ccncc2)C3(C)C1(C)C (stereo not given in full) | not fulfilled |
| C=C1C[C@@]23O[C@]2(c2ccccc21)C1CC(OC(=O)[C@H](O)[C@@H](NC(=O)OCC)c2ccc(O)cc2)C3(C)C1(C)C (stereo not given in full) | fulfilled |
| C[C@H]1C[C@@]23O[C@]2(c2ccccc21)C1CC(OC(=O)[C@H](O)[C@@H](NC(=O)OC(C)(C)C)c2ccccc2)C3(C)C1(C)C (stereo not given in full) | fulfilled |
| CCOC(=O)N[C@@H](c1ccc(C)cc1)[C@@H](O)C(=O)OC1CC2C(C)(C)C1(C)[C@@]13C[C@H](C)c4ccccc4[C@@]21O3 (stereo not given in full) | fulfilled |
| CCOC(=O)N[C@@H](c1ccccc1)[C@@H](O)C(=O)OC1CC2C(C)(C)C1(C)[C@@]13C[C@H](C)c4ccccc4[C@@]21O3 (stereo not given in full) | not fulfilled |
| C=C1C[C@@]23O[C@]2(c2ccccc21)C1CC(OC(=O)[C@H](O)[C@@H](NC(=O)OCC)c2cccs2)C3(C)C1(C)C (stereo not given in full) | not fulfilled |
| C=C1C[C@@]23O[C@]2(c2ccccc21)C1CC(OC(=O)[C@H](O)[C@@H](NC(=O)OC)c2ccccc2)C3(C)C1(C)C (stereo not given in full) | fulfilled |
| CCOC(=O)N[C@@H](c1ccncc1)[C@@H](O)C(=O)OC1CC2C(C)(C)C1(C)[C@@]13C[C@H](C)c4ccccc4[C@@]21O3 (stereo not given in full) | not fulfilled |

* * *

MEASURED_TARGET: Tubulin beta chain (Bos taurus) (UniProt Q6B856)
Sequence (Q6B856 whole entry): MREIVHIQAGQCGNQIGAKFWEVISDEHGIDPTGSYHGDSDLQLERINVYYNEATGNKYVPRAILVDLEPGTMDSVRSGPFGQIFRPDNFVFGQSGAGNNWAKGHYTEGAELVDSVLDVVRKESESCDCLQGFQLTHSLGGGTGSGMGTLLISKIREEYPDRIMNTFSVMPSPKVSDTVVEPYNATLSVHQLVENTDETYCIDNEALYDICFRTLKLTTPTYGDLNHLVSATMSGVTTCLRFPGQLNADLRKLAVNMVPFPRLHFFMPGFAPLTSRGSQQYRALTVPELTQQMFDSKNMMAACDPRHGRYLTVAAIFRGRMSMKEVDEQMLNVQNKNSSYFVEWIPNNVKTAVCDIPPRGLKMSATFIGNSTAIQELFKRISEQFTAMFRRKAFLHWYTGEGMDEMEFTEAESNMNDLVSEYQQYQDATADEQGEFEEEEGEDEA
ASSAY_NAME: Effect on microtubule stabilization isolated from bovine brain
// Relative stability lookup, one value per entry

| MOLECULE | Relative stability (%) |
| --- | --- |
| C=C1C[C@@]23O[C@]2(c2ccccc21)C1CC(OC(=O)[C@H](O)[C@@H](NC(=O)CC(C)C)c2ccccc2)C3(C)C1(C)C (some centres not stated) | 101 |
| COC(=O)N[C@@H](c1ccncc1)[C@@H](O)C(=O)OC1CC2C(C)(C)C1(C)[C@@]13CC(C)c4ccccc4[C@@]21O3 (some centres not stated) | -5 |
| CCOC(=O)N[C@@H](c1ccccc1)[C@@H](O)C(=O)OC1CC2C(C)(C)C1(C)[C@@]13C[C@](O)(COC(C)=O)c4ccccc4[C@@]21O3 (some centres not stated) | 22 |
| C=C1C[C@@]23O[C@]2(c2ccccc21)C1CC(OC(=O)[C@H](O)[C@@H](NC(=O)CCC)c2ccccc2)C3(C)C1(C)C (some centres not stated) | 114 |
| C=C1C[C@@]23O[C@]2(c2ccccc21)C1CC(OC(=O)[C@H](O)[C@@H](NC(=O)NC(C)(C)C)c2ccccc2)C3(C)C1(C)C (some centres not stated) | 92 |
| CCCC(=O)N[C@@H](c1ccccc1)[C@@H](O)C(=O)OC1CC2C(C)(C)C1(C)[C@@]13C[C@H](C)c4ccccc4[C@@]21O3 (some centres not stated) | 168 |
| CCCCNC(=O)N[C@@H](c1ccccc1)[C@@H](O)C(=O)OC1CC2C(C)(C)C1(C)[C@@]13C[C@H](C)c4ccccc4[C@@]21O3 (some centres not stated) | 130 |

* * *

MEASURED_TARGET: Tubulin beta chain (Bos taurus)
ASSAY_NAME: Effect on microtubule stabilization isolated from bovine brain
Recorded Relative stability determines the group label, using group 1: < 90%; group 2: ≥ 90% and < 200%; group 3: ≥ 200%

| COMPOUND | QUALITATIVE_LABEL |
| --- | --- |
| CCOC(=O)N[C@@H](c1ccncc1)[C@@H](O)C(=O)OC1CC2C(C)(C)C1(C)[C@@]13C[C@](O)(CO)c4ccccc4[C@@]21O3 (some centres not stated) | group 3 |
| CC(C)NC(=O)N[C@@H](c1ccsc1)[C@@H](O)C(=O)OC1CC2C(C)(C)C1(C)[C@@]13CC(C)c4ccccc4[C@@]21O3 (some centres not stated) | group 1 |
| C=C1C[C@@]23O[C@]2(c2ccccc21)C1CC(OC(=O)[C@H](O)[C@@H](NC(=O)OCCCC)c2ccccc2)C3(C)C1(C)C (some centres not stated) | group 1 |
| C=C1C[C@@]23O[C@]2(c2ccccc21)C1CC(OC(=O)[C@H](O)[C@@H](NC(=O)NC(C)C)c2ccccc2)C3(C)C1(C)C (some centres not stated) | group 2 |
| C=C1C[C@@]23O[C@]2(c2ccccc21)C1CC(OC(=O)[C@H](O)[C@@H](NC(=O)OCC)c2ccc(OC)cc2)C3(C)C1(C)C (some centres not stated) | group 2 |
| C=C1C[C@@]23O[C@]2(c2ccccc21)C1CC(OC(=O)[C@H](O)[C@@H](NC(=O)OCC)c2ccccc2)C3(C)C1(C)C (some centres not stated) | group 3 |
| CCCCOC(=O)N[C@@H](c1ccc(O)cc1)[C@@H](O)C(=O)OC1CC2C(C)(C)C1(C)[C@@]13CC(C)c4ccccc4[C@@]21O3 (some centres not stated) | group 1 |
| CCOC(=O)N[C@@H](c1cccc(F)c1)[C@@H](O)C(=O)OC1CC2C(C)(C)C1(C)[C@@]13C[C@H](C)c4ccccc4[C@@]21O3 (some centres not stated) | group 2 |
| C=C1C[C@@]23O[C@]2(c2ccccc21)C1CC(OC(=O)[C@H](O)[C@@H](NC(=O)OCC)c2cccnc2)C3(C)C1(C)C (some centres not stated) | group 1 |
| C[C@H]1C[C@@]23O[C@]2(c2ccccc21)C1CC(OC(=O)[C@H](O)[C@@H](NC(=O)CCC2CCCC2)c2ccccc2)C3(C)C1(C)C (some centres not stated) | group 1 |
| C=C1C[C@@]23O[C@]2(c2ccccc21)C1CC(OC(=O)[C@H](O)[C@@H](NC(=O)OC(C)(C)C)c2ccccc2)C3(C)C1(C)C (some centres not stated) | group 1 |
| CCOC(=O)N[C@@H](c1ccc(Cl)cc1)[C@@H](O)C(=O)OC1CC2C(C)(C)C1(C)[C@@]13C[C@H](C)c4ccccc4[C@@]21O3 (some centres not stated) | group 2 |
| C=C1C[C@@]23O[C@]2(c2ccccc21)C1CC(OC(=O)[C@H](O)[C@@H](NC(=O)OCC)c2ccsc2)C3(C)C1(C)C (some centres not stated) | group 3 |
| COC(=O)N[C@@H](c1ccncc1)[C@@H](O)C(=O)OC1CC2C(C)(C)C1(C)[C@@]13C[C@](O)(COC(C)=O)c4ccccc4[C@@]21O3 (some centres not stated) | group 2 |
| C=C1C[C@@]23O[C@]2(c2ccccc21)C1CC(OC(=O)[C@H](O)[C@@H](NC(=O)OCC)c2ccc(F)cc2)C3(C)C1(C)C (some centres not stated) | group 2 |
| COC(=O)N[C@@H](c1ccncc1)[C@@H](O)C(=O)OC1CC2C(C)(C)C1(C)[C@@]13C[C@]4(CO4)c4ccccc4[C@@]21O3 (some centres not stated) | group 3 |
| CCOC(=O)N[C@@H](c1ccc(OC)cc1)[C@@H](O)C(=O)OC1CC2C(C)(C)C1(C)[C@@]13C[C@H](C)c4ccccc4[C@@]21O3 (some centres not stated) | group 2 |
| COC(=O)N[C@@H](c1ccccc1)[C@@H](O)C(=O)OC1CC2C(C)(C)C1(C)[C@@]13C[C@H](C)c4ccccc4[C@@]21O3 (some centres not stated) | group 3 |
| C=C1C[C@@]23O[C@]2(c2ccccc21)C1CC(OC(=O)[C@H](O)[C@@H](NC(=O)NCCCC)c2ccccc2)C3(C)C1(C)C (some centres not stated) | group 1 |
| C=C1C[C@@]23O[C@]2(c2ccccc21)C1CC(OC(=O)[C@H](O)[C@@H](NC(=O)OCC)c2ccc(C)cc2)C3(C)C1(C)C (some centres not stated) | group 2 |
| CCOC(=O)N[C@@H](c1cccnc1)[C@@H](O)C(=O)OC1CC2C(C)(C)C1(C)[C@@]13C[C@H](C)c4ccccc4[C@@]21O3 (some centres not stated) | group 2 |
| CCOC(=O)N[C@@H](c1cccs1)[C@@H](O)C(=O)OC1CC2C(C)(C)C1(C)[C@@]13C[C@H](C)c4ccccc4[C@@]21O3 (some centres not stated) | group 3 |
| C=C1C[C@@]23O[C@]2(c2ccccc21)C1CC(OC(=O)[C@H](O)[C@@H](NC(=O)OCC)c2ccc(Cl)cc2)C3(C)C1(C)C (some centres not stated) | group 2 |
| COC(=O)N[C@@H](c1ccc(O)cc1)[C@@H](O)C(=O)OC1CC2C(C)(C)C1(C)[C@@]13CC(C)c4ccccc4[C@@]21O3 (some centres not stated) | group 3 |
| CCOC(=O)N[C@@H](c1ccsc1)[C@@H](O)C(=O)OC1CC2C(C)(C)C1(C)[C@@]13C[C@@H](C)c4ccccc4[C@@]21O3 (some centres not stated) | group 1 |
| CCOC(=O)N[C@@H](c1ccoc1)[C@@H](O)C(=O)OC1CC2C(C)(C)C1(C)[C@@]13C[C@H](C)c4ccccc4[C@@]21O3 (some centres not stated) | group 2 |
